# TARGET_ENTITY: furin, P09958;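 note: purified furin at 1:10 enzyme:substrate in 50 mM HEPES pH 7.5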
# Sequence (P09958 whole entry): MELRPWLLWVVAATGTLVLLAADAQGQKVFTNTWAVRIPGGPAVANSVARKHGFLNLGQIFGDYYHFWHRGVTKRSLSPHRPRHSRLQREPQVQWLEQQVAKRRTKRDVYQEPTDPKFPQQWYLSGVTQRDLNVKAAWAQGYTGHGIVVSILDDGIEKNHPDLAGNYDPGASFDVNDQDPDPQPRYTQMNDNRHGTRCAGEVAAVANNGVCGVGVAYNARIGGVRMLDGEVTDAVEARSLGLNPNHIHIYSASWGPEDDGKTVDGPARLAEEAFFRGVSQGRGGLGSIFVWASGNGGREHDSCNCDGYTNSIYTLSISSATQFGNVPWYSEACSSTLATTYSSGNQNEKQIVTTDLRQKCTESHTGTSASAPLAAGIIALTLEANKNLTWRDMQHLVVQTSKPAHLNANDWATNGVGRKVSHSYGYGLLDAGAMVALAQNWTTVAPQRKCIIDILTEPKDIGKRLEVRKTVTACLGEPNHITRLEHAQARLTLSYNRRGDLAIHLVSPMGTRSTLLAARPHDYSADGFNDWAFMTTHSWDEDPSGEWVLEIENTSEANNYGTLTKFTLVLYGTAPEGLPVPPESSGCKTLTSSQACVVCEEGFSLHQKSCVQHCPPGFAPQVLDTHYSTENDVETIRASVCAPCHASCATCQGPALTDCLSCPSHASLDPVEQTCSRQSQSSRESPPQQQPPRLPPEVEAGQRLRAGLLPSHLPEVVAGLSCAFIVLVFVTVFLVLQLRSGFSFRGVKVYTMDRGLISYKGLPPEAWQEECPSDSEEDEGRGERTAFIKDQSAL
# TEST: furin cleavage Z-score vs untreated control; higher = more cleavage, active = 3.5 or more, inactive = 1 or less, 8 variable residues between constant flanks
# CONDITIONS_USED: 7.5 min
This is one part of the list. The hit rate among all sequences tested is not known here.
Reported furin cleavage Z-score values for the following sequences.
ENDPOINT_LABEL: furin cleavage Z-score

# SEQUENCE_STRING, ENDPOINT_LABEL, VAL
measured = [
    ("CAVGWPAPQGAGNASASA [HC715]", "furin cleavage Z-score", 0.307),
    ("CAFEECSQHLAGNASASA [HC1667]", "furin cleavage Z-score", 1.36),
    ("CASRCRFLRSAGNASASA [FS-1086]", "furin cleavage Z-score", 4.82),
    ("CAEVVTCTWVAGNASASA [HC154]", "furin cleavage Z-score", 0.26),
    ("CAGRHCVRRSAGNASASA [FS-163]", "furin cleavage Z-score", 3.46),
    ("CAFAERSGRGAGNASASA [FS-1322]", "furin cleavage Z-score", -0.454),
    ("CAGHGRQERSAGNASASA [FS-530]", "furin cleavage Z-score", 1.31),
]
